Origin of the recorded values: PubChem BioAssay (NCI)

Give growth for every item shown.
Tested on: MDA-MB-435 melanoma
test-summary: NCI-60 one-dose screen, 48 h (100 = growth as untreated, 0 = no growth, -100 = all killed)
measurement-setup: 10 µM unless noted
Compounds without any hit were thinned out: in the full panel of roughly 83,000, 20% have a hit.
Answers are plain numbers, in %.

Would you mind listing growth for each of the following compounds?
1. CC1(C)C2=C(C(=O)N1Cc1ccccc1)C(c1ccco1)N(C(=O)C1CCC1)CCN2 (centres undefined)
2. NC(=O)[C@@H]1Cc2ccccc2CN1C(=O)c1ccc2c(c1)Cc1ccccc1-2
3. COC1CC(O)C2=C(CC3C(/C(C)=C\CC=C(C)C)CCC3(C)O2)C1=O (centres undefined)
4. CCCCCC(C)(O)C(C(=O)O)c1ccccc1 (centres undefined)
5. CC(=O)Cc1nsc(NC(=O)c2cc(-c3cc(Cl)ccc3Cl)oc2C)n1
6. COc1cc(NC(=O)c2cncnc2Nc2ccc3c(ccn3Cc3cccc(F)c3)c2)cc(OC)c1
7. C#CC(F)(F)[C@]1(O)CCC2C3CCC4=CC(=O)CCC4=C3[C@@H](c3ccc(N(C)C)cc3)C[C@@]21C (some centres undefined)
8. COc1ccc(/C(C)=C(\c2ccc(Cl)cc2)c2ccc(OCCCN(C)C)cc2)cc1

RESULT:
[101, 77.7, 109, 107, 101, -4.76, 103, 39]

---

System: IGROV1 ovarian
test-summary: NCI-60 one-dose screen, 48 h
measurement-setup: 10 µM unless noted
The panel holds about 83,000 compounds, 20% with a hit somewhere; the sample as a whole holds those more often. Active and inactive are the calls of the source. How the source made its calls: active means growth percent below 10; inactive means the rest.
Valid outcomes are listed here; reply with one: active, inactive

compound	class
Cc1ccc(NC(=O)c2ccc(Nc3ncnc4c3cnn4-c3cccc(F)c3)cc2)cc1	inactive

QUERY: How was Cc1cc2c(c(C)n1)CN(C(=O)Nc1nc(-c3cncs3)ccc1N)C2 classified in this test?
RESULT: inactive

QUERY: How was CC(=O)Oc1ccccc1C(=O)N(Cc1ccc2c(Cl)cc(Cl)c(O)c2n1)c1ccccc1 classified in this test?
RESULT: inactive

---

Test system: ACHN renal
test-summary: NCI-60 one-dose screen, 48 h (100 = growth as untreated, 0 = no growth, -100 = all killed)
measurement-setup: 10 µM unless noted
This is part of a sample that, as a whole, favours compounds with a hit. Of some 83,000 tested, about 20% had one in any assay. The source made the active and inactive calls. How the source made its calls: active means growth percent below 10; inactive means the rest.
measurement-label: growth

Some solved cases for reference:
CCNCCNc1c(C)c(-c2ccc(C(F)(F)F)cc2)c(C#N)c2nc3ccccc3n12 82.5% (inactive)
CCN1CCN(CCOc2ccc(CNc3ccc4nc(CCC5CCCCC5)[nH]c4c3)cc2)CC1 40.9% (inactive)
COc1ccc2c(c1)C(c1c[nH]c3ccccc13)(c1c[nH]c3ccccc13)CCO2 45% (inactive)
COc1ccc(N/N=C/c2ccc3c(c2)Sc2ccccc2N3C)cc1 51.6% (inactive)

# ---- query compound ----
QUERY: Recorded growth of CC(=O)c1ccc(Nc2nccc(-c3ccc(Cl)cc3)n2)cc1 , please.
RESULT: 92.3% (inactive)

---

Give growth for every item shown.
Test system: OVCAR-8 ovarian
test-summary: NCI-60 one-dose screen, 48 h (100 = growth as untreated, 0 = no growth, -100 = all killed)
measurement-setup: 10 µM unless noted
This is part of a sample that, as a whole, favours compounds with a hit. Of some 83,000 tested, about 20% had one in any assay.
One number for each entry, in %.

Nc1n[nH]c2cccc(C#Cc3cccc(C(=O)Nc4ccc(Cl)c(C(F)(F)F)c4)c3)c12 65.8
COc1ccc(CNc2ccc3nc(CCC4CCCCC4)[nH]c3c2)cc1 73.6
Cc1cc(C(=O)Nc2cc(Nc3ncccc3-c3ncnc4nc[nH]c34)ccc2F)cc(C(C)(C)C#N)c1 39.9
CC(C)(C)c1ccc(C(=O)Nc2sc3c(c2C#N)CCC(=O)C3)cc1 16.6
NCCNc1ccc([N+](=O)[O-])cc1 113
O=C(Nc1ccc(Oc2cccc(F)c2)c(Cl)c1)c1cnccn1 37.5

Would you mind listing growth for each of the following molecules?
1. CCOC(=O)c1cnc2sc(-c3ccc(OC)cc3)nc2c1Cl
2. Cc1nc2c(c(-c3ccccc3)n1)Cc1c(ccc3ccccc13)O2
3. COc1ccc(CNc2c3ccccc3nc3ccccc23)cc1OC

RESULT:
1: 112; 2: 95.1; 3: 23.9

---

Give growth for every item shown.
Tested on: CAKI-1 renal
test-summary: NCI-60 one-dose screen, 48 h (100 = growth as untreated, 0 = no growth, -100 = all killed)
measurement-setup: 10 µM unless noted
Description: Growth inhibition of the CAKI-1 human tumor cell line is measured as a screen for anti-cancer activity. Cells are grown in 96 well plates and exposed to the test compound for 48 hours. Compounds are tested at a single concentration, which is 10^-5 M for most compounds. The reported endpoint is percent growth (GI% or GIPRCNT), where numbers from 0 - 100% represent growth inhibition, and numbers from -100% - 0 represent cell death. For example, a value of 40 represents 60% growth inhibition. […]
Compounds without any hit were thinned out: in the full panel of roughly 83,000, 20% have a hit.
Numbers only, in %.

compound	endpoint-unit	growth
C=C(C)[C@@H]1CC[C@]2(C#N)CC[C@]3(C)[C@H](CC[C@@H]4[C@@]5(C)CCCNC(C)(C)[C@@H]5CC[C@]43C)[C@@H]12	%	62.2
COc1cc(OCc2cccc(-c3ccc4c(c3)OCCO4)c2C)cc(OC)c1C=O	%	25.9
Cc1cc(=O)oc2cc(Oc3nc(-c4ccccc4)cn4c(-c5ccccc5)cnc34)ccc12	%	85.2
CN(Cc1ccccc1)c1nc(Cl)c(C2CC(c3ccc(Cl)cc3)=NN2c2cc(Cl)cc(Cl)c2)s1 (centres undefined)	%	84.4

Would you mind listing growth for each of the following compounds?
1. NCCCCCNc1noc(Cc2c[nH]c3cc(Br)ccc23)n1
2. COC(=O)c1c(C)nc(C)c2c1C(=O)C(Br)=C(NCCN1CCOCC1)C2=O
3. C#CCOc1cc(/C=N/Nc2nc(-c3ccc(OC)cc3)cs2)ccc1O
4. O=C(CSc1nc(-c2ccccc2)cn1-c1ccc(Cl)cc1)c1ccc([N+](=O)[O-])cc1
5. CC1(C)CC[C@]2(CO)CC[C@]3(C)[C@H](CC[C@@H]4[C@@]5(C)CC[C@H](O)C(C)(C)[C@@H]5CC[C@]43C)[C@H]2[C@H]1O
6. c1ccc(-c2nc(N3CCNCC3)c3oc(-c4ccccc4)nc3n2)cc1
7. CC1=NC(=S)NC(c2ccccc2)/C1=C1/CC(c2ccccc2O)NN1 (centres undefined)
8. CCOC(=O)CC1C(CNC(=O)NC)OC(n2cnc3c(NC(=O)Nc4ccccc4)ncnc32)C1O[Si](C)(C)C(C)(C)C (centres undefined)

RESULT:
1. 35.3
2. 91.4
3. 77.6
4. 89
5. 99.9
6. -94
7. 84.8
8. 81.6

---

Give growth for every item shown.
Tested on: SK-MEL-5 melanoma
test-summary: NCI-60 one-dose screen, 48 h (100 = growth as untreated, 0 = no growth, -100 = all killed)
measurement-setup: 10 µM unless noted
Experimental: Growth inhibition of the SK-MEL-5 human tumor cell line is measured as a screen for anti-cancer activity. Cells are grown in 96 well plates and exposed to the test compound for 48 hours. Compounds are tested at a single concentration, which is 10^-5 M for most compounds. The reported endpoint is percent growth (GI% or GIPRCNT), where numbers from 0 - 100% represent growth inhibition, and numbers from -100% - 0 represent cell death. For example, a value of 40 represents 60% growth inhibition. […]
This is part of a sample that, as a whole, favours compounds with a hit. Of some 83,000 tested, about 20% had one in any assay.
Give bare numbers, in %.

compound	measurement-label	value
Oc1cccc2c1NCCC2	growth	-51.2
O=C(Nc1ccccc1)Nc1ccccc1CNc1nc(Nc2ccc(OCCN3CCCC3)cc2)ncc1Cl	growth	57.2
COc1ccc(-c2ccc(-c3ccc(C(=N)N)o3)o2)cc1	growth	25.6
Cc1ccccc1NC(=O)Cn1cc(CN2CCN(c3ccnc4cc(Cl)ccc34)CC2)nn1	growth	91.2
C(CCCSC1=NCCN1)CCSC1=NCCN1	growth	107
Cc1cc2nc(C(Cl)Cl)nc(-c3ccccc3)n2n1	growth	94.4
N=C(N)c1ccc(-c2ccc(-c3ccc(Cl)cc3Cl)s2)nc1	growth	97.7
C=C1CC[C@@H]2[C@](C)(COC(C)=O)[C@H](OC(C)=O)CC[C@@]2(C)[C@@H]1CC(Nc1ccc(S(=O)(=O)Nc2nccc(C)n2)cc1)C1=CCOC1=O (stereo not given in full)	growth	45
O=C1c2cccnc2C(=O)c2c1c(C(=O)OCCCN1CCOCC1)c1ccccn21	growth	-94.9

# ---- query compound ----
QUERY: Recorded growth of CC(C)C(=O)Nc1ncc(C(=O)NCCN(Cc2ccccc2)C(=O)c2ccc(S(=O)(=O)Nc3ccccc3)cc2)s1 , please.
RESULT: 90.8
